EXPERIMENT NOTES: Human plasma half-life assay
Format: in vitro ADME
REPORTED CONDITIONS: 37° C., LC-MS, read-out: Human Plasma T½ (converted)
Non-standard residues stand in square brackets, D forms with d. No end group written: not given here. *: point of attachment. Myristoyl = CCCCCCCCCCCCCC(=O)*; 12Ado = NCCCCCCCCCCCC(=O)O; Ac6c = NC1(C(=O)O)CCCCC1; Nle = CCCC[C@H](N)C(=O)O; Orn = NCCC[C@H](N)C(=O)O; Ac5c = NC1(C(=O)O)CCCC1; Aib = CC(C)(N)C(=O)O
ATTRIBUTE MEASURED: half-life at 0.1 mg/ml (h)
Give bare numbers, in h.

In: Looking for the measured half-life at 0.1 mg/ml of YAEGTFISDYSI[Aib][Nle]DKIHQQDFVNWLLAQKGKKNDWKHNITQF-OH [Example 9, (Aib^13, Nle^14, Phe^43)hGIP(1-43)-OH] , can you help?
Out: 6.9

Hello, I would appreciate it if you could give half-life at 0.1 mg/ml for each entry below.
1. YAEGTF[Ac6c]SDYSIAMDKIHQQDFVNWLLAQKGKKNDWKHNI[Ac6c]Q-OH [Example 16, (A6c^7, 41)hGIP(1-42)-OH]
2. YAEGTFISDY[Ac5c]IAMDKIHQQDFVNWLLAQKGKKNDWKHNITQT-OH [Example 10, (A5c^11, Thr^43)hGIP(1-43)-OH]

Out:
[6.5, 7.9]

Hello, I would appreciate it if you could give half-life at 0.1 mg/ml for each entry below.
1. YAEGTFISDY[Ac6c]IA[Ac6c]DKIHQQDFVNWLLAQKGKKNDWKHNI[Ac6c]Q-OH [Example 11, (A6c^11, 14, 41)hGIP(1-42)-OH]
2. YAEGTFISDY[Ac5c]IAMDKIHQQDFVNWLLAQKGKKNDWKHNITQA-OH [Example 8, (A5c^11, Ala^43)hGIP(1-43)-OH]
3. YAEGTFISDYSI[Aib]MDKIHQQDFVNWLLAQKGKKNDWKHN[Ac5c]TQ-OH [Example 7, (Aib^13, A5c^40)hGIP(1-42)-OH]
4. YAEGTF[Ac6c]SDYSIA[Nle]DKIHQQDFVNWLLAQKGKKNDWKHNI[Ac6c]Q-OH [Example 17, (A6c^7, 41, Nle^14)hGIP(1-42)-OH]
5. YAEGTF[Ac6c]SDYSIAMDKIHQQDFVNWLLAQK[Orn](Myristoyl)KKNDWKHNITQ-OH [Example 19]
6. YAEGTFISDYSI[Aib]MDKIHQQDFVNWLLAQKGKKNDWKHNITQD-NH2 [Example 5, (Aib^13, Asp^43)hGIP(1-43)-NH2]
7. YAEGTFISDY[Ac6c]IA[Ac6c]DKIHQQDFVNWLLAQKGKKNDWKHN[Ac6c]TQ-OH [Example 14, (A6c^11, 14, 40)hGIP(1-42)-OH]

Out:
1. 13.1
2. 7.4
3. 7
4. 6.3
5. 6.3
6. 5.5
7. 11.6

Hello, I would appreciate it if you could give half-life at 0.1 mg/ml for each entry below.
1. YAEGTFISDY[Ac5c]IAMDKIHQQDFVNWLLAQKGKKNDWKHN[Ac5c]TQ-OH [Example 2, (A5c^11, 40)hGIP(1-42)-OH]
2. YAEGTFISDY[Ac5c]IAMDKIHQQDFVNWLLAQKGKKNDWKHNITQ[12Ado]-OH [Example 13, (A5c^11, Ado^43)hGIP(1-43)-OH]
3. H-YAEGTF[Ac6c]SDYSIAMDKIHQQDFVNWLLAQKGKKN[Orn](Myristoyl)WKHNITQ-OH [Example 18]

Out:
1: 14.1; 2: 13.1; 3: 7.3

// data source = patent US9072703B2
